System: MS2 coat protein
Measurement Description: apparent KD of MS2 coat protein; designed switch direction (-1 OFF switch, 1 ON switch): -1; higher = weaker reporter binding
Condition Info: Eterna round: R95; input ligand: FMN 200 uM
Measurement Label: apparent KD of MS2 coat protein (µM)

• GCUUGGCGAGGAUAUACAUGAGGAUCACCCAUGUGAGAGAAAUAAGUGAGGAAGAAAAGUAGAAGGCGCUGAGG [Mat - Exclusion 3 - Mod of Salish D59] (puzzle: Exclusion 3) = 0.167
• GGUAGUAUGAGUAGUCCUCAUUGAAGAGAGUGGUAAGAAACAUGAGGAUCACCCAUGUAAGAACAAGCUUUUGCUCA [JR_Sv3TOV2_Sub005] (puzzle: Sensor v3, turn-off variant 2) = 0.191
• GGAAAGUGAGGAUAUGGUAAAGUAAGUAUGUAGUAAGUAAUCCAGAAGGCACAUGAGGAUCACCCAUGUAAAGG [Mat - Exclusion 4 - D101] (puzzle: Exclusion 4) = 0.0248
• GGAAAGGUAGGAUAUACGAAGAAAAAGGGUAGAAGAAAAACACAUGAGGAUCACCCAUGUAGAAGGACCAAAGG [Mat - Exclusion 2 - Mod of my Tesla design - D2] (puzzle: Exclusion 2) = 0.0514
• CUUAGACAUGAGGAUCACCCAUGUGAGGAUAUGAUGCGAAUGAAGAAAGAAGGAAGCAUCAGAAGGCACAUAUG [Mat - Mod of Hyphema D26] (puzzle: Exclusion 1) = 0.323

* * *

Test system: MS2 coat protein
Measurement Description: apparent KD of MS2 coat protein; designed switch direction (-1 OFF switch, 1 ON switch): -1; higher = weaker reporter binding
Condition Info: Eterna round: R95; input ligand: FMN 200 uM
// reported apparent KD of MS2 coat protein for each item listed
Measurement Label: apparent KD of MS2 coat protein (nM)

• CUGAGCAGACGGAGAUCCAACAUGAGGAUCACCCAUGUCUCAAAAGCUUUUUGCUCGUCUUACCCUCCUCUGCUCUC [Ticeisor] (puzzle: Sensor v3, turn-off variant 1) = 19.1
• UACCGGCGGACCGAAGCUUUUUGCUCGUCUUAUACUACAACAUGAGGAUCACCCAUGUGGUGGUGGUCCGUUGUAGU [JL ViennaUCT Bitein mod 4] (puzzle: Sensor v3, turn-off variant 2) = 20.2
• CUGGACCGAGGAUAUAUUAUGUGAAACAUGAGGAUCACCCAUGUAAUAUGAUGGAUGUAAAUAGAAGGCGGUCUAG [Mat - Exclusion 5 - JL mod - D28] (puzzle: Exclusion 5) = 34.5
• UGUGGAGCUUAGGAUAUUGCUCUACCAAGAGGGCGAGAAGGGAGCACAUGAGGAUCACCCAUGUGGUCCGGAAC [Edoroner] (puzzle: Exclusion 6) = 26
• AGUGCUGACACGUUGGUGUUAGUACCAUAAGCUUGUGAUACAUGAGGAUCACCCAUGUCCUCAUAAGCUCGUCUUAU [salish99_TOv2_r2_097] (puzzle: Sensor v3, turn-off variant 2) = 28.6
• CUAGAUCUUCGGAUCUAGUACAUGAGGAUCACCCAUGUUACGAGCUGAUUUUCAUACAAGCUUUUUGCUCGUCUUAU [Sensor v3 - Turn-off variant 1 - 29] (puzzle: Sensor v3, turn-off variant 1) = 38.1
• GCGUCGAGUGUGAGGAUAUGCUGGUCAUAAGAUCAGCAGAAGGCACAUGAGGAUCACCCAUGUGAAAACGAUGC [Mat - Exclusion 4 - JL Mod - D69] (puzzle: Brourd's mod of Exclusion 4) = 73.2
• UAGAAAUUCAACGAGUGAAACAUGAGGAUCACCCAUGUGGUGGUAAGGAACAAGCUUUUUGCACGUACUUAUAAGAA [JR_SV3TOV1_Sub003] (puzzle: Sensor v3, turn-off variant 1) = 239
• AAGAAACGAGGAUAUACAGUUGAGUGAGAGAGGGUAGUGUUACAUGAGGAUCACCCAUGUAGAAGGCGUGAGAG [JR_Exclu2_Sub089] (puzzle: Exclusion 2) = 52.7
• GCCGGUGUUGCGGAUAAGCUUUUCUGCUCGUUUUAUCGCACAUGAGGAUCACCCAUGUCAUCCGUCAGCAUGCAAAC [Aredardi] (puzzle: Sensor v3, turn-off variant 2) = 26
• GGUUGGCGAGGAUAUACAUGAGGAUCACCCAUGUGAGAGAAUAAAGUGAGAAAGAAAAGUAGAAGGCGCUGACA [Mat - Exclusion 3 - Mod of Salish D51] (puzzle: Exclusion 3) = 900
• AAUACAAGCAAGAUCCUAAACAUGAGGAUCACCCAUGUGCUCGUCUUGUAAAGUACUAUCACGAAAGUGAUAGUACA [Sensor 3, v1 - 62] (puzzle: Sensor v3, turn-off variant 1) = 29.4
• GGCAUAAUGUAGGAUAUCGUAAUGGAAACAUUACGAGAAGGGCAAACAUGAGGAUCACCCAUGUUCCUUAAGCC [Mat - Exclusion 6 - Eli Mod - D70] (puzzle: Exclusion 6) = 18.7
• UUUAUAAUUUCAAUCUUCGCUGGCAAACUUACGCCAGCCACAUGAGGAUCACCCAUGUUUUUUGUUCGUUUUAUUCU [Xeinzarace] (puzzle: Sensor v3, turn-off variant 2) = 18.8
• GUAGAGUAAGGAUAUGUUGAAUAGGAUAGAAUGGUUAGAAAACAGAAGGUACAUGAGGAUCACCCAUGUAAUGU [Excluse me!!!! 11 - Jieux - Exclusion 4] (puzzle: Exclusion 4) = 20
• CCUUAGUCAGGAUAUUGAGGUAAAAGAAAAGAAAACGACAGCAAGAAGGGACAUGAGGAUCACCCAUGUAUAAA [Bequxeain] (puzzle: Exclusion 4) = 24.4
• UUUAAUUUUUUUUUUUUACAAGCUUUUUGCUCGUCUUAUACAUGAGGAUCACCCAUGUGAAUGGGAAAUGAAUUAUC [JMF 96] (puzzle: Sensor v3, turn-off variant 2) = 112
• ACAAGCUUUUUGUUCGUCUUAUAAUAAUAAAUAAAGAUAACAUGAGGAUCACCCAUGUAACAAAGACGGCCUCAUGU [Sesor Array 19 - Jieux - Sensor v3, turn-off variant 2] (puzzle: Sensor v3, turn-off variant 2) = 166
• GAUUAUGCAAGCUUUAGGGACAUGAGGAUCACCCAUGUUCGUCUUAUUGAUCUAGGUACGCUGACGUACCUAGAUCU [JL-sv1-2.32 Brourd mod] (puzzle: Sensor v3, turn-off variant 1) = 17
• AAGAAACAUGAGGAUCACCCAUGUGAGGAUAUGAAAAAGAAAAGAAAAGAAAGAAGAAUCAGAAGGCACAAAGU [salish99-ex1_r3_089] (puzzle: Exclusion 1) = 26.5

* * *

Test system: MS2 coat protein
Measurement Description: apparent KD of MS2 coat protein; higher = weaker reporter binding
Condition Info: Eterna round: R107; input ligand: arginine 13.2 mM
Measurement Label: apparent KD of MS2 coat protein (nM)

• AAGGAAAAGGCGGCCGCCACUGGAAAGGCGAAAGCCAAGAAAACAUGAGGAUCACCCAUGUCAUGUAGGACCGGGCCAAAAGGAA = 10
• CUUCGCAUAGGAAAACUAUGUGAAGAAAAUCGAGGACCGGUACGGCCGCCACUCGUCCUCAACAUGAGGAUCACCCAUGUAAUAA [Mat - Exclusion - Trytophan A - D6] = 17.3
• UUAAAUGUGACGGAUACCAGCGUGUUGUAGAACAUGAGGAUCACCCAUGUAGUGAUCGAGCGCCCUUGGCAGCUGGUAUGUUUGA [7.Y] = 102
• AACAUACAAUAAAAGGUGGAAAUAAGGCGGCGAGGACCGGUACGGCCGCCACUCGCGUACAUGAGGAUCACCCAUGUCUGAAACU [Same State - Tryptophan A (Freestyle 2)] = 12.5
• UGUAUUGGAAACAGUACUAGUGAUCCGGUCCGAGGACCGGUACGGCCGCCACUCGAUAUAAAUAAACAUGAGGAUCACCCAUGUA [Ex Tryptophan A 13] = 23.3
• UGACAUUGCUGCGAUACCAGACAUGAGGAUCACCCAUGUACCAAGAAAACGUACAUAAAUGUCCCUUGGCAGCGCAGCAAUGUCU [MAT - Exclusion Theophlline B - Mod of Eli - D25] = 170

* * *

System: MS2 coat protein
Measurement Description: apparent KD of MS2 coat protein; higher = weaker reporter binding
Condition Info: Eterna round: R107; input ligand: theophylline 2 mM
// reported apparent KD of MS2 coat protein for each item listed
Measurement Label: apparent KD of MS2 coat protein

* GUAGCUAUCGCGGCCGCCACUAAACCGGAAACGGAACAGGAGGAUCACCCUUGUGGCGAAAGCCAUAGGACCGGGCGAUAGCUAC [TryBS - Double Magnet system] | 0.735 µM
* AGUACAUGAGGAUCACCCAUGUGCCGGUAACGAGGACCGGUACGGCCGCCACUCGAUGUACCUCAAUUUGAUUGAGAUAAGAAAA [Anorbian] | 0.0474 µM
* UGUAUGGACUGAAGGAGCGGAAGAUAACCUGAGGAUCACCCGGGUAAUAAGGCGAAAGCCUUCCAGGUAGGUCGCAGUCCAUACU | 0.419 µM
* AAGACGGUCGGAAGGAGCGGUACAUGAGGAUCACCCAUGUACUUCUGGGCAUCCGUAGUGUGCCAGGUAGGUCGCCGAUUGCGGG [XArg-B12] | 0.0249 µM
* GGAUAGGACAGAAGGAGCGACAUGGCGACGAAAGUCGGACCUUCACAUGAGGAUCACCCAUGUCAGGUAGGUCGCUGUCCUAUCG [ArgXB 6 #MS2Gate #StaticStem] | 0.0524 µM
* GAGUAGAGGACGGCCGCCACUGAACAUGAGGAUCACCCAUGUCGUGAUCCGUUGCCUGAAGAAGAUAGGACCGGGUCAUGUGCUC [Exclusion Tryptophan B GF 20] | 0.0318 µM
* UAUCCACAUGAGGAUCACCCAUGUAGGGAAGGAGCGGUGGUUGCACCAGGUAGGUCGCCUUGCUGAGGAUAACCGGUGGAAUCGU [Exclusion - Arginine A (Freestyle 28)] | 0.0336 µM
* AUCAUAAUAGCCUCGUGUAAUUAAAUGGAACGAGGACCGGUACGGCCGCCACUCGAUAUAAACAUGAGGAUCACCCAUGUAAGCA [JR_ExcTryptoA_Sub004] | 0.0582 µM
* GGGUGGUAGGCGGCCGCCACUGAUUUUCAUAUAUAUAUAACAUGAGGAUCACCCAUGUAGAUAUGCAGGACCGGGCCUGUUGUUU [aaaL] | 0.0377 µM
* UAAUGCAUGACGGCCGCCACUAGAACAUGAGGAUCACCCAUGUACGGCGGCCGUCAUGGGUGGACUAGGACCGGGUCAUGCAUAU [(Trp1)-(Ms2)-(T)'-(M)'-(Trp2)_Design5] | 0.0105 µM
* AAUACCGGAUCGGCCGCCACUGGUUGGCCCUGUGUACAUGAGGAUCACCCAUGUCCAUCCCAAGCCAGGACCGGGAUCUUUGUGU [Bedice] | 0.0185 µM
* CGGUUUGUGAUGGAUACCAGCAGAGUGGCUGUUUAUCCUGACAUGAGGAUCACCCAUGUGUGCCCUUGGCAGCUGUUGUGGGCUG [8.aB] | 0.108 µM
